# reported TGI; entries follow
- Test system: HCT-116 colon
- Experimental details: NCI tumour cell line growth inhibition, 48 h

Compound	TGI
CC1CC[P+](c2ccccc2)(c2ccccc2)c2c1ccc1ccccc21 (centres undefined)	> 39.5 µM
O=C(Nc1cccc([N+](=O)[O-])c1)c1n[nH]n(-c2cccc([N+](=O)[O-])c2)c1=O	> 100 µM
Cc1oc2c(c1C)S(=O)(=O)C(C#N)=C(N(C)C)N2	> 100 µM
COC(=O)c1c(C#N)c(N)nc2c1CCC2	> 100 µM
CC1(C)CNc2cc(NC(=O)c3cccnc3NCc3ccncc3)ccc21	> 100 µM
C[N+](C)(C)CC(=O)N/N=C(/C(=O)Nc1ccc(Br)cc1)C1C(=O)NC(=O)NC1=O	> 100 µM
COC1=CC2(CC(OC)=C1OC)OC21COc2ccccc2C1=O (centres undefined)	> 100 µM
O=c1ccn(C2OC(CO)C(O)C2F)c(=O)n1Cc1ccccc1 (centres undefined)	> 100 µM
COc1ccc(-c2nc(-c3ccc(C)cc3)cn3ccnc23)cc1	> 50 µM

====

- System: SK-MEL-5 melanoma
- Experimental details: NCI tumour cell line growth inhibition, 48 h
Measurement kind: TGI

Compound	Measurement kind	Assay value
CC(=O)Oc1c2c(c3n(c1=O)CCCC3)C(=O)N(c1ccccc1)C2=O	TGI	> 100 µM
Cc1ccc(C2=C(C#N)C(N)OC3=C2COc2ccccc23)cc1 (stereo not given)	TGI	> 100 µM
C/C=C1\CN(C(=O)OC(C)(C)C)C1C(=O)OC(C)(C)C (stereo not given)	TGI	> 100 µM
NC(CCOCCP(=O)(O)O)C(=O)O (stereo not given)	TGI	> 100 µM
C[CH2][Ge]([CH2]C)([CH2]C)[O]C(=O)C(OC(C)=O)c1ccccc1 (stereo not given)	TGI	> 100 µM
O=C(c1ccccc1)C1S(=O)(=O)OCCOS1(=O)=O	TGI	> 100 µM
CC(=O)Nc1c(S(=O)(=O)c2ccccc2)c(C)c(C)n1Cc1ccccc1	TGI	> 100 µM
Cc1ccc(C(=O)Nc2ccc(CP(=O)(O)O)cc2CP(=O)(O)O)cc1NC(=O)Nc1cc(C(=O)Nc2ccc(CP(=O)(O)O)cc2CP(=O)(O)O)ccc1C	TGI	> 100 µM
Cc1nc(C)c(N2CCNCC2)c(=O)[nH]1	TGI	> 100 µM
CCOC(=O)Nc1ccc2c(c1)c(CCCCCCc1nc3ccccc3c3ccc(NC(=O)OCC)cc13)nc1ccccc12	TGI	> 100 µM

====

- Test system: T-47D breast
- Experimental details: NCI tumour cell line growth inhibition, 48 h
# reported TGI; entries follow

Compound	TGI
COc1cc(/C=N/Nc2ncnc3c2cnn3-c2ccccc2)ccc1O	> 25 µM
OCCN(/N=C\c1ccc2ccccc2c1)C1=NCCN1	> 100 µM
CCc1ccc(CCC(=O)Nc2ncc(Cc3ccc(Cl)cc3)s2)o1	> 100 µM
COC(=O)C1=C(O)[C@H](C(=O)OC)C2(O)C(C(=O)OC)[C@H](c3ccc(OC(=O)C(C)c4ccc(CC(C)C)cc4)cc3)C[C@@H]1[C@@H]2C(=O)OC (stereo partly specified)	> 50 µM
O=c1[nH]cc(Cl)c(=O)[nH]1	> 100 µM
CC(C)=CCC/C(C)=C/COc1c2ccoc2cc2oc(=O)ccc12	> 100 µM

====

# reported GI50; entries follow
- Tested on: OVCAR-3 ovarian
- Experimental details: NCI tumour cell line growth inhibition, 48 h

Chemical string	GI50
O=C([CH-]C(=O)c1ccccc1)c1ccccc1.[CH-]1CCCCC1.[CH-]1CCCCC1.[CH-]1CCCCC1.[Sn+4]	5.89 µM
COc1ccc2c(c1)nc(C(=O)c1ccco1)c(C(F)(F)F)[n+]2[O-]	> 100 µM
COc1ccc(C/C(=C(\C)c2ccc(OCCN3CCCC3)cc2)c2ccc(OCCN3CCCC3)cc2)cc1	2 µM
